- TARGET_UNDER_TEST: Glutamate NMDA receptor
- TEST_SUMMARY: Affinity against 3[H]TCP binding to N-methyl-D-aspartate glutamate receptor in rat brain membranes
Listed below: Ki values for each entry.
Give just the numeric value; nM need not be written.

The cases that follow already have their Ki on record.
INSERT INTO measurements (compound, quantity, unit_of_measure, test_result) VALUES
  ('Oc1cc(O)c2c(c1)C1CC(c3ccoc3)(c3ccoc3)C2c2cccc[n+]21 (racemic)', 'Ki', 'nM', 125),
  ('Oc1ccc2c(c1)C1CC(c3ccoc3)(c3ccoc3)C2c2cccc[n+]21 (racemic)', 'Ki', 'nM', 29),
  ('CCCCCCCCOc1cccc2c1C1c3cccc[n+]3C2CC1(c1ccoc1)c1ccoc1 (racemic)', 'Ki', 'nM', 3380),
  ('Oc1ccc2[n+](c1)C1CC(c3ccoc3)(c3ccoc3)C2c2ccccc21 (racemic)', 'Ki', 'nM', 1530),
  ('COC(=O)C12CC(c3ccoc3)(c3ccoc3)C(c3ccccc31)c1cccc[n+]12 (racemic)', 'Ki', 'nM', 39),
  ('Oc1cccc2c1C1c3cccc[n+]3C2CC1(c1ccoc1)c1ccoc1 (racemic)', 'Ki', 'nM', 1.8);

Item: COc1c(Cl)ccc2c1C1c3cccc[n+]3C2CC1(c1ccoc1)c1ccoc1 (racemic) | Ki: 64

Item: N#CC12CC(c3ccoc3)(c3ccoc3)C(c3ccccc31)c1cccc[n+]12 (racemic) | Ki: 10
